target_entity: mouse TRPM3α2 (mTRPM3) ion channel (Mus musculus, UniProt J9SQF3)
Sequence (J9SQF3 1-1709 isoform J9SQF3-12): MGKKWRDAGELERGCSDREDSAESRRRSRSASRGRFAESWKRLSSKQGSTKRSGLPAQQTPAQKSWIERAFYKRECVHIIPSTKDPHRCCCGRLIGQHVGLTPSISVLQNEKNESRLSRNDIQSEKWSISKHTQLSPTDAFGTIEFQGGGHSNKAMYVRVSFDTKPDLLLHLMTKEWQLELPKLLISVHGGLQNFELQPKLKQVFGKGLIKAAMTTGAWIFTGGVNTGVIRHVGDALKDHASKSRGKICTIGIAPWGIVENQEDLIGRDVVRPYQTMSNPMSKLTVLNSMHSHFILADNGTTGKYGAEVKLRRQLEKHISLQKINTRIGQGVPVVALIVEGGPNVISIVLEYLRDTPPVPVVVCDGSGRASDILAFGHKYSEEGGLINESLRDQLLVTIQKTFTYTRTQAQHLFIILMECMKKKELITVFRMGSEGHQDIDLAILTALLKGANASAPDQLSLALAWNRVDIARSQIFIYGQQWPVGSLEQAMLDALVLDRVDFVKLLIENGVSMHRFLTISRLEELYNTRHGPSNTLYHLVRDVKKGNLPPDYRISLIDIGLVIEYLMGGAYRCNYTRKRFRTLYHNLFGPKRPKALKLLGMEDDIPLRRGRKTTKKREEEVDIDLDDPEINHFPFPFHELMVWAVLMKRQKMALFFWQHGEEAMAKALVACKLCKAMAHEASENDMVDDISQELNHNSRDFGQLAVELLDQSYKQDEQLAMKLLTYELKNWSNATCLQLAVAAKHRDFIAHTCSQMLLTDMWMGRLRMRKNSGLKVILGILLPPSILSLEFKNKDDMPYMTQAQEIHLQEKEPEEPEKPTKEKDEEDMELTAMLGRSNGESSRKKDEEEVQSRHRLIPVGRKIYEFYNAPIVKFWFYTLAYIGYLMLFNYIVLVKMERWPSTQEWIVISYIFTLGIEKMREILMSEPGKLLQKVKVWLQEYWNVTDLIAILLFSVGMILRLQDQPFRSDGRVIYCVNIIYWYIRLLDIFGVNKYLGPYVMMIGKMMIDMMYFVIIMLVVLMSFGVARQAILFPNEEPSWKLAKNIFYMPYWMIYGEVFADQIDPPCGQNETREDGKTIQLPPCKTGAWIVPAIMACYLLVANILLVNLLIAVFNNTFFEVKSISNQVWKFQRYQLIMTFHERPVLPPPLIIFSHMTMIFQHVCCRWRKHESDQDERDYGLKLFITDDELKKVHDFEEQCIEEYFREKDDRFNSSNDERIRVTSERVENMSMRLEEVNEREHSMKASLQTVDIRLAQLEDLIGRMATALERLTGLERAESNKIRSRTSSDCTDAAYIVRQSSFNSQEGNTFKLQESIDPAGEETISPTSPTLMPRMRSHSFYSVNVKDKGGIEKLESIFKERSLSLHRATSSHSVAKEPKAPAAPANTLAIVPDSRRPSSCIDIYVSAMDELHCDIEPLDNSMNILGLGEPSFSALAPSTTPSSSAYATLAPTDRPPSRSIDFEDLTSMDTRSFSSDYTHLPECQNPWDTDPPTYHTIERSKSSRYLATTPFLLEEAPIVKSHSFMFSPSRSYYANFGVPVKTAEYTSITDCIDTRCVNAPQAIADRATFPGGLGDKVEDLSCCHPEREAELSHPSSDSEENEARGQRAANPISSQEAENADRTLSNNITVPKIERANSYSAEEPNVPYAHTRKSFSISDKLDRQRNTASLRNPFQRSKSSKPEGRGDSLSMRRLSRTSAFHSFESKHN
assay_method_text: TRPM3 ion channel driven Ca2+ uptake, Fluo-4 AM assay, mTRPM3alpha2 overexpressing flip-in HEK293 cells stimulated with pregnenolone sulfate (50 μM)
condition_info: mTRPM3 overexpressing HEK293 cells stimulated with pregnenolone sulfate (50 μM), activity ranges A, B, C
Entries and their measured IC50 follow.

Cn1nc2ccc(OCc3cccnc3C(F)(F)F)cc2c1C(=O)O    1 to 20 µM
Cn1nc2ccc(OCc3ccccn3)cc2c1C(=O)NC(CO)Cc1ncccn1 (single isomer, unassigned) [Cpd 243 - En2]    > 20 µM
Cn1nc2ccc(OCC3(C#N)CC3)cc2c1C(=O)N[C@@H](CO)C(N)=O    1 to 20 µM
CN1CCC(NC(=O)c2c3cc(OCc4ccccn4)ccc3nn2C)CC1    1 to 20 µM

Ask: Note IC50 for the molecule shown: O=C1c2c3cc(OCc4ccccc4F)ccc3nn2CCN1CCO
Result: 1 to 20 µM

Ask: Fill in reported IC50 for this entry: CNC(=O)C1(NC(=O)c2c3cc(OCc4cccnc4C(F)(F)F)ccc3nn2C)CCOC1 (single isomer, unassigned) [Cpd 183 - En1]
Result: < 1 µM

Ask: Look up IC50 of CNC(=O)C1(NC(=O)c2c3cc(OCc4cccnc4C(F)(F)F)ccc3nn2C)CCOC1 (single isomer, unassigned) [Cpd 183 - En2] and report it.
Result: 1 to 20 µM

Ask: Return value of IC50 for input Cn1nc2ccc(OCc3ccccn3)cc2c1C(=O)NC1(CO)COC1 , no commentary.
Result: 1 to 20 µM

Ask: Answer with the recorded IC50 for the molecule listed here: COCC(C)(CC(F)F)NC(=O)c1c2cc(OCc3ccccn3)ccc2nn1C (single isomer, unassigned) [Cpd 230 - En2]
Result: 1 to 20 µM

Ask: Quick one: give measured IC50 for CN1CC(NC(=O)c2c3cc(OCc4ccccc4)ccc3nn2C)C(F)(F)C1 (centres unmarked)
Result: 1 to 20 µM

Ask: Indicate its recorded IC50; the molecule in question is Cc1ncc(COc2ccc3nn(C)c(C(=O)NC(CO)(CO)CO)c3c2)s1
Result: 1 to 20 µM

Ask: Tell us which IC50 value is on record for Cn1nccc1COc1ccc2nn(C)c(C(=O)O)c2c1
Result: > 20 µM

Ask: Specify measured IC50 for Cn1nc2ccc(OCc3ccccn3)cc2c1C(=O)NC(C)(CO)C(N)=O (single isomer, unassigned) [Cpd 162 - En1] .
Result: 1 to 20 µM

Ask: State its IC50: Cn1nc2ccc(OCc3ccccn3)cc2c1C(=O)NC(C)(CO)CC(F)(F)F (single isomer, unassigned) [Cpd 255 - En2]
Result: 1 to 20 µM

Ask: Give recorded IC50. Cn1nc2ccc(OCc3ccccn3)cc2c1C(=O)N[C@@H]1CCN(CCO)C1=O
Result: 1 to 20 µM

Ask: # return recorded IC50 for input Cc1ncc(COc2ccc3nn(C)c(C(=O)NC(C)(C)C(N)=O)c3c2)s1
Result: 1 to 20 µM

Ask: Tell me measured IC50 for Cn1nccc1COc1ccc2nn(C)c(C(=O)NC(C)(CO)CO)c2c1 please.
Result: 1 to 20 µM

Ask: Name the recorded IC50 of the molecule listed here: Cn1nc2ccc(OCc3ccccc3F)cc2c1C(=O)NC(C)(CO)C(N)=O (single isomer, unassigned) [Cpd 194 - En1]
Result: < 1 µM

Ask: State, in one line, measured IC50 of Cn1nc2ccc(OCc3ccccn3)cc2c1C(=O)NC(CO)C1CCOCC1 (single isomer, unassigned) [Cpd 241 - En1]
Result: 1 to 20 µM

Ask: Give reported IC50 value for COCC(C)(CO)NC(=O)c1c2cc(OCc3ccccn3)ccc2nn1C (single isomer, unassigned) [Cpd 258 - En2]
Result: 1 to 20 µM

Ask: Input Cc1ncsc1COc1ccc2nn(C)c(C(=O)NC3CCNCC3(F)F)c2c1 (single isomer, unassigned) [Cpd 132 - En2] , output reported IC50.
Result: 1 to 20 µM
